Data origin: ChEMBL document CHEMBL3868600

# Test system: Streptococcus mitis
# Assay Method Text: Antibacterial activity against Streptococcus mitis NCIMB 13770 after 24 hrs by broth microdilution method
# Assay type: functional
# Cond: NCIMB 13770, 24 h
Reported values of log10(MIC90) for individual entries
Kindly note that the scale is log10 and the underlying MIC90 is in µg/mL.

Structure Smiles String	log10(MIC90)
COC(=O)[C@@H](CO)NC(=O)[C@]1(C)CCC[C@]2(C)c3ccc(C(C)C)cc3CC[C@@H]12	0.90
O=C(N[C@H](CO)[C@H](O)c1ccc([N+](=O)[O-])cc1)C(Cl)Cl	0.60
CC(C)C1=CC2=CC[C@@H]3[C@](C)(CCC[C@@]3(C)C(=O)O)[C@H]2CC1	1.20
CC1(C)S[C@@H]2[C@H](NC(=O)[C@H](N)c3ccccc3)C(=O)N2[C@H]1C(=O)O	0.30
CC[C@H]1OC(=O)[C@H](C)[C@@H](O[C@H]2C[C@@](C)(OC)[C@@H](O)[C@H](C)O2)[C@H](C)[C@@H](O[C@@H]2O[C@H](C)C[C@H](N(C)C)[C@H]2O)[C@](C)(OC)C[C@@H](C)C(=O)[C@H](C)[C@@H](O)[C@]1(C)O	-0.60

Would you mind telling me what log10(MIC90) value was observed for CN(C)[C@@H]1C(O)=C(C(N)=O)C(=O)[C@@]2(O)C(O)=C3C(=O)c4c(O)cccc4[C@@](C)(O)[C@H]3C[C@@H]12 ?
0.00

* * *

Reported values of MIC90 for individual entries
# Assay Method Text: Antifungal activity against Cladosporium cladosporioides ATCC 16022 after 48 hrs by broth microdilution method
# Assay type: functional
Express your answer in µg/mL, writing the number without its unit.

Would you mind telling me what MIC90 value was observed for OC(Cn1cncn1)(Cn1cncn1)c1ccc(F)cc1F ?
520

Would you mind telling me what MIC90 value was observed for CC(C)C1=CC2=CC[C@@H]3[C@](C)(CCC[C@@]3(C)C(=O)O)[C@H]2CC1 [ABIETIC ACID] ?
63
